- Test system: MDA-MB-231
- test-summary: NCI tumour cell line growth inhibition, 48 h
Calls of active or inactive are those of the source. No stated cut-off is given here; in the data, active = GI50 up to about 1.1 µM and inactive = higher.
Just give me one of these, please: Y = active, N = inactive

Reference set, count: 8
compound: N=C1/C(=C/c2ccco2)C(=O)N=C2SC=NN12
qualitative-label: N
//
compound: CCC/N=C/c1c(O)c(O)c(C(C)C)c2cc(C)c(-c3c(C)cc4c(C(C)C)c(O)c(O)c(/C=N/CCC)c4c3O)c(O)c12
qualitative-label: N
//
compound: Cc1nnc(CC#N)n1NC(=O)CC#N
qualitative-label: N
//
compound: COc1ccc2nc(-c3ccccc3)c(=O)[nH]c2c1
qualitative-label: N
//
compound: C/C(=N\Nc1nc2ccccc2s1)c1cc(C)ncn1
qualitative-label: Y
//
compound: Cc1cc(C)c(OC(=O)Nc2cccc3ccccc23)c(-c2ccccc2)c1
qualitative-label: N
//
compound: CN1C(=O)C2(c3ccccc31)C1CC3C(CO1)C1C2C3(CO)CN1C#N (stereo unspecified)
qualitative-label: N
//
compound: CNc1ccc(C(=O)CC(O)CCC(C)C2OC(=O)CC(O)CC(=O)CC(O)CC(O)CC(O)CC(O)CC3(O)CC(O)C(C(=O)NCCN(C)C)C(CC(OC4OC(C)C(O)C(NC(=O)CN5CCN(C)CC5)C4O)\C=C/C=C\C=C/C=C/C=C/C=C\C=C/C2C)O3)cc1 (stereo unspecified)
qualitative-label: N

Task: How did this test come out for `CN(C)c1nc(N)nc(CCl)n1` ?
Output: N

Task: Also `COc1ccccc1N/C(SCc1ccccc1)=C(/C(Cl)=C(Cl)Cl)[N+](=O)[O-]` ?
Output: N

Task: Also `COc1ccc(/N=C/C=C/Nc2ccc(OC)cc2)cc1` ?
Output: N
